Target: CRF-binding protein / CRF-R2 receptor complex (human)
Test: activators of CRF-R2 paired with CRF-BP – cell-based, 384-well, SAR follow-up (AID 651648)
Details: cells expressing CRF-BP/CRF-R2 complex, agonist read-out
Active and inactive are the calls of the source. How the calls were made is not given here.
endpoint: EC50

Field EC50 (system: CRF-binding protein / CRF-R2 receptor complex (human)) for entry CC(Oc1ccc(Br)cc1)C(=O)N1CCc2ccccc21 (centres undefined) = > 20 µM (inactive)

Field EC50 (system: CRF-binding protein / CRF-R2 receptor complex (human)) for entry CC(=O)Nc1ccc(Sc2ncccc2C(=O)Nc2ccccc2F)cc1 = > 20 µM (inactive)

Field EC50 (system: CRF-binding protein / CRF-R2 receptor complex (human)) for entry Cc1c(-n2cc(C(=O)c3ccccc3O)cc(C#N)c2=O)c(=O)n(-c2ccccc2)n1C = > 20 µM (inactive)

Field EC50 (system: CRF-binding protein / CRF-R2 receptor complex (human)) for entry CCOc1ccc(N(CC(=O)N2CCOCC2)S(=O)(=O)c2ccc(OC)cc2)cc1 = > 20 µM (inactive)

Field EC50 (system: CRF-binding protein / CRF-R2 receptor complex (human)) for entry CCc1nc2c(c(=O)c3ccccc3n2C)c(=O)n1C1CCCCCC1 = 4.68 µM

Field EC50 (system: CRF-binding protein / CRF-R2 receptor complex (human)) for entry CCOC(=O)c1cc2ccccc2n1CCN(CC)CC = > 20 µM (inactive)

Field EC50 (system: CRF-binding protein / CRF-R2 receptor complex (human)) for entry O=C(CC1CCCCC1)c1c(O)c2ccccc2oc1=O = 5.68 µM

Field EC50 (system: CRF-binding protein / CRF-R2 receptor complex (human)) for entry CCOc1ccc(N(CC(=O)N2CCOCC2)S(=O)(=O)c2ccccc2)cc1 = > 20 µM (inactive)

Field EC50 (system: CRF-binding protein / CRF-R2 receptor complex (human)) for entry COc1ccc(CCn2c(C(C)C)nc3c(c(=O)c4ccccc4n3C)c2=O)cc1 = > 20 µM (inactive)

Field EC50 (system: CRF-binding protein / CRF-R2 receptor complex (human)) for entry CCC1CCCCN1Cc1ccc(OC)c(C)c1 (centres undefined) = > 20 µM (inactive)

Field EC50 (system: CRF-binding protein / CRF-R2 receptor complex (human)) for entry Cc1cc(NC(=O)COC(=O)[C@H](Cc2ccccc2)NC(=O)c2ccco2)no1 = 5.58 µM

Field EC50 (system: CRF-binding protein / CRF-R2 receptor complex (human)) for entry CCCCCCc1cc2cc(C(=O)NCc3ccccc3)c(=N)oc2cc1O = > 20 µM (inactive)

Field EC50 (system: CRF-binding protein / CRF-R2 receptor complex (human)) for entry CCOc1ccccc1N(CC(=O)N1CCOCC1)S(=O)(=O)c1ccccc1C#N = > 20 µM (inactive)

Field EC50 (system: CRF-binding protein / CRF-R2 receptor complex (human)) for entry CC(=O)Nc1ccc(Sc2ncccc2C(=O)Nc2ccc(C(F)(F)F)cc2)cc1 = > 20 µM (inactive)

Field EC50 (system: CRF-binding protein / CRF-R2 receptor complex (human)) for entry CCOc1ccccc1N(CC(=O)N1CCOCC1)S(=O)(=O)c1cccc(F)c1 = 4.77 µM

Field EC50 (system: CRF-binding protein / CRF-R2 receptor complex (human)) for entry Cc1sc(NC(=O)C2CCCCC2C(=O)O)c(C(N)=O)c1-c1ccc(C(C)(C)C)cc1 (centres undefined) = 9.52 µM

Field EC50 (system: CRF-binding protein / CRF-R2 receptor complex (human)) for entry CCOc1ccc(S(=O)(=O)N(CC(=O)N2CCOCC2)c2ccccc2)cc1 = > 20 µM (inactive)

Field EC50 (system: CRF-binding protein / CRF-R2 receptor complex (human)) for entry CCOc1ccccc1N(CC(=O)N1CCOCC1)S(=O)(=O)c1ccc(Br)cc1OC(F)(F)F = 7.02 µM

Field EC50 (system: CRF-binding protein / CRF-R2 receptor complex (human)) for entry CC(=O)Nc1cccc(OC(=O)c2ccoc2C)c1 = 9.4 µM

Field EC50 (system: CRF-binding protein / CRF-R2 receptor complex (human)) for entry CC(=O)Nc1ccc(Sc2ncccc2C(=O)Nc2cc(C)cc(C)c2)cn1 = > 20 µM (inactive)

Field EC50 (system: CRF-binding protein / CRF-R2 receptor complex (human)) for entry CCOc1cccc(N(CC(=O)N2CCOCC2)S(=O)(=O)c2ccc(OC)cc2)c1 = > 20 µM (inactive)

Field EC50 (system: CRF-binding protein / CRF-R2 receptor complex (human)) for entry COc1ccc(C)cc1NC(=O)c1cccnc1Sc1ccc(NC(C)=O)cc1 = > 20 µM (inactive)

Field EC50 (system: CRF-binding protein / CRF-R2 receptor complex (human)) for entry CCOc1ccc(N(CC(=O)N2CCOCC2)S(=O)(=O)c2ccc(SC)cc2)cc1 = > 20 µM (inactive)

Field EC50 (system: CRF-binding protein / CRF-R2 receptor complex (human)) for entry CCOc1ccccc1N(CC(=O)N1CCCCC1)S(=O)(=O)c1ccc(SC)cc1 = 0.473 µM

Entry source: PubChem BioAssay AID651648
